Test: Cytotoxicity against LPS-induced […] BV-2 cells assessed as cell viability at 20 uM measured after 24 hrs by MTT assay relative to control
Type: cell-based
Details: LPS-induced BV-2 cells, read-out: Activity
# viability at 24 h, 20 µM listing for each entry below
Only the number, expressed in %, is required.

Dear colleague, please send me the reported viability at 24 h, 20 µM for O=C(CCN1CCOCC1)c1ccc(Cl)cc1 when you can.
100

Dear colleague, please send me the reported viability at 24 h, 20 µM for O=C(CCN1CCOCC1)c1ccc(Br)cc1 when you can.
100

Dear colleague, please send me the reported viability at 24 h, 20 µM for O=C(CCN1CCOCC1)c1ccc(I)cc1 when you can.
89.4

Reference for the values: ChEMBL document CHEMBL4706652
